Would you kindly list MIC for each of these substances?
- System: Staphylococcus haemolyticus
- experimentalDetails: Antibacterial activity against Staphylococcus haemolyticus incubated for 16 to 20 hrs
- Type: functional
- conditionDetails: time 16-20 hrs

The reported MIC of the substance H-FKWKSVLKGVKGFVKGYF-OH was < 1.56 µg/mL

The reported MIC of the substance H-KKCIAKAILKKAKKLLKDLVNP-OH was < 1.56 µg/mL

The reported MIC of the substance H-KKCIAKAILKKAKKLLKKLVNP-OH was < 1.56 µg/mL

The reported MIC of the substance COLISTIN was 3.12 µg/mL

====

- experimentalDetails: Cytotoxicity against human HaCaT cells incubated for 24 hrs by MTS assay
- Format: toxicity, cell-based
- conditionDetails: read-out: LD50
valueType: CC50 at 24 h

The reported CC50 at 24 h of the substance H-KKCIAKAILKKAKKLLKKLVNP-OH was > 100 µg/mL

The reported CC50 at 24 h of the substance H-FKWKSVLKGVKGFVKGYF-OH was > 100 µg/mL

====

- Test system: Acinetobacter baumannii
- experimentalDetails: Bactericidal activity against Acinetobacter baumannii incubated for overnight
- Format: functional
valueType: MBC (µg/mL)
State just the number; it will be interpreted in µg/mL.

The reported MBC of the substance H-FKWKSVLKGVKGFVKGYF-OH was 3.12

The reported MBC of the substance H-GKCIAKAIFKGAKKLLKKLVNP-OH was 3.12

The reported MBC of the substance H-GKCIAKAIFKGAKKFLKKLVNP-OH was 3.12

The reported MBC of the substance H-KKCIAKAILKKAKKLLKKLVNP-OH was 1.56

The reported MBC of the substance H-KKCIAKAILKKAKDLLDDLVNP-OH was 50

The reported MBC of the substance H-GKCIWKAIFKGAKKFLKKLVNP-OH was 1.56

The reported MBC of the substance H-KKCIAKAILKKAKKLLKDLVNP-OH was 1.56

The reported MBC of the substance H-FKWKSVLKIVKIFVKIYF-OH was 12.5

The reported MBC of the substance H-GKCIAKAILKGAKKLLKKLVNP-OH was 1.56

The reported MBC of the substance H-KKCIAKAILKKAKKLLDDLVNP-OH was 6.25

====

- Tested on: Pseudomonas aeruginosa
- experimentalDetails: Antibacterial activity against Pseudomonas aeruginosa incubated for 16 to 20 hrs
- Format: functional
- conditionDetails: time 16-20 hrs
Would you kindly list MIC for each of these substances?
State just the number; it will be interpreted in µg/mL.

The reported MIC of the substance H-KKCIAKAILKKAKKLLKDLVNP-OH was 100

The reported MIC of the substance H-FKWKSVLKGVKGFVKGYF-OH was 25

The reported MIC of the substance H-KKCIAKAILKKAKKLLKKLVNP-OH was 25

====

Would you kindly list MBC for each of these substances?
- Tested on: Escherichia coli
- experimentalDetails: Bactericidal activity against Escherichia coli incubated overnight
- Format: functional
State just the number; it will be interpreted in µg/mL.

The reported MBC of the substance H-KKCIAKAILKKAKKLLKKLVNP-OH was 12.5

The reported MBC of the substance H-FKWKSVLKGVKGFVKGYF-OH was 6.25

The reported MBC of the substance H-KKCIAKAILKKAKKLLKDLVNP-OH was 50

====

- System: Vibrio vulnificus
- experimentalDetails: Antibacterial activity against Vibrio vulnificus 204 incubated for 16 to 20 hrs
- Format: functional
- conditionDetails: time 16-20 hrs
valueType: MIC (µg/mL)
State just the number; it will be interpreted in µg/mL.

The reported MIC of the substance H-KKCIAKAILKKAKKLLKKLVNP-OH was 6.25

The reported MIC of the substance COLISTIN was 25

The reported MIC of the substance H-KKCIAKAILKKAKKLLKDLVNP-OH was 12.5

The reported MIC of the substance H-FKWKSVLKGVKGFVKGYF-OH was 6.25

====

- Test system: Vibrio vulnificus
- experimentalDetails: Bactericidal activity against Vibrio vulnificus V1 incubated overnight
- Assay type: functional
Would you kindly list MBC for each of these substances?
State just the number; it will be interpreted in µg/mL.

// assay Vibrio vulnificus, entry H-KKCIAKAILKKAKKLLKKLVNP-OH , MBC value = 12.5

// assay Vibrio vulnificus, entry H-FKWKSVLKGVKGFVKGYF-OH , MBC value = 12.5

// assay Vibrio vulnificus, entry COLISTIN , MBC value = 50

// assay Vibrio vulnificus, entry H-KKCIAKAILKKAKKLLKDLVNP-OH , MBC value = 12.5

====

- experimentalDetails: Cytotoxicity against human HaCaT cells incubated for 24 hrs by LDH assay
- Assay type: toxicity, cell-based
- conditionDetails: read-out: LD50
Would you kindly list CC50 at 24 h for each of these substances?

The reported CC50 at 24 h of the substance H-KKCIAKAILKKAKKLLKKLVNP-OH was > 100 µg/mL

The reported CC50 at 24 h of the substance H-FKWKSVLKGVKGFVKGYF-OH was > 100 µg/mL

====

- System: Klebsiella pneumoniae
- experimentalDetails: Bactericidal activity against NDM Klebsiella pneumoniae incubated overnight
- Assay type: functional
Would you kindly list MBC for each of these substances?

The reported MBC of the substance H-FKWKSVLKGVKGFVKGYF-OH was 25 µg/mL

The reported MBC of the substance H-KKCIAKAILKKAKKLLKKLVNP-OH was 25 µg/mL

The reported MBC of the substance H-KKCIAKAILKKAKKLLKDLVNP-OH was 50 µg/mL

The reported MBC of the substance COLISTIN was < 1.56 µg/mL

====

- Tested on: Klebsiella oxytoca
- experimentalDetails: Antibacterial activity against Klebsiella oxytoca incubated for 16 to 20 hrs
- Type: functional
- conditionDetails: time 16-20 hrs
valueType: MIC (µg/mL)
State just the number; it will be interpreted in µg/mL.

// assay Klebsiella oxytoca, entry H-FKWKSVLKGVKGFVKGYF-OH , MIC value = 25

// assay Klebsiella oxytoca, entry H-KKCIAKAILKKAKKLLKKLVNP-OH , MIC value = 50

// assay Klebsiella oxytoca, entry COLISTIN , MIC value = 12.5

// assay Klebsiella oxytoca, entry H-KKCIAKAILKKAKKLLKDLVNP-OH , MIC value = 50

====

- experimentalDetails: Hemolytic activity in human RBC at 100 ug/ml incubated for 1 hr
- Type: toxicity, cell-based, Erythrocyte
- conditionDetails: human red blood cells (erythrocytes), at 100 µg/mL, read-out: Activity
Output 1.0 for hemolysis at 1 h, 100 ug/ml not less than 20%; output 0.0 otherwise.

Is the recorded value of hemolysis at 1 h, 100 ug/ml equal to or greater than 20% for this substance? H-FKDKSVLKIVKIFVDIYF-OH
0.0

Is the recorded value of hemolysis at 1 h, 100 ug/ml equal to or greater than 20% for this substance? H-FKWKSVLKGVKGFVKGYF-OH
1.0

Is the recorded value of hemolysis at 1 h, 100 ug/ml equal to or greater than 20% for this substance? H-FKWKSVLKGVDGFVDGYF-OH
1.0

Is the recorded value of hemolysis at 1 h, 100 ug/ml equal to or greater than 20% for this substance? H-KKCIAKAILKKAKDLLDDLVNP-OH
0.0

Is the recorded value of hemolysis at 1 h, 100 ug/ml equal to or greater than 20% for this substance? H-FKWKSVLKGVKGFVDGYF-OH
1.0

Is the recorded value of hemolysis at 1 h, 100 ug/ml equal to or greater than 20% for this substance? H-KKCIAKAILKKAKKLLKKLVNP-OH
0.0

Is the recorded value of hemolysis at 1 h, 100 ug/ml equal to or greater than 20% for this substance? H-FDWDSVLKGVEGFVRGYF-OH
0.0

Is the recorded value of hemolysis at 1 h, 100 ug/ml equal to or greater than 20% for this substance? H-GKCIAKAIFKGAKKLLKKLVNP-OH
1.0

====

Would you kindly list MIC for each of these substances?
- System: Vibrio vulnificus
- experimentalDetails: Antibacterial activity against Vibrio vulnificus V2 incubated for 16 to 20 hrs
- Type: functional
- conditionDetails: time 16-20 hrs
State just the number; it will be interpreted in mg/L.

The reported MIC of the substance H-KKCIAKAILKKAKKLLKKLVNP-OH was 12.5

The reported MIC of the substance H-FKWKSVLKGVKGFVKGYF-OH was 12.5

The reported MIC of the substance H-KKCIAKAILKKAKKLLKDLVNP-OH was 12.5

The reported MIC of the substance COLISTIN was 50

====

- System: Vibrio vulnificus
- experimentalDetails: Bactericidal activity against Vibrio vulnificus V2 incubated overnight
- Type: functional
valueType: MBC (µg/mL)
State just the number; it will be interpreted in µg/mL.

The reported MBC of the substance H-FKWKSVLKGVKGFVKGYF-OH was 12.5

The reported MBC of the substance COLISTIN was 50

The reported MBC of the substance H-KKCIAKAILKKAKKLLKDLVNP-OH was 12.5

The reported MBC of the substance H-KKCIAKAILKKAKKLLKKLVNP-OH was 12.5
